Source listed as the supplement of paper PMC10065799.

Below: a set of entries, each annotated with reported SH2 binding enrichment.
# assay.target: SHP2-C SH2;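 further: peptide library displayed on the E. coli surface as eCPX fusions, selected cells deep-sequenced, score is each peptide's frequency after selection divided by its frequency in the input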
# procedure.details: SH2 binding enrichment of the phosphorylated peptide, bacterial display (enrichment ratio); higher = better substrate or ligand; peptides without Tyr show the background
Output: the number by itself.

As a guide, the following entries are already answered.
[[record]]
monomer_sequence = "IKELTYQMEED [MYH7_Y1852_T1854M]"
observed_value = 0.605

[[record]]
monomer_sequence = "IFGVSYDEYRY [CFTR_Y512]"
observed_value = 0.896

[[record]]
monomer_sequence = "MNKNAYHNVTA [ST3GAL6_Y306]"
observed_value = 0.51

[[record]]
monomer_sequence = "SKNSKYNAGST [PSEN1_Y315_E318G]"
observed_value = 0.557

[[record]]
monomer_sequence = "AFLQTYAHEVS [PCDHGA5_Y753_S754A]"
observed_value = 0.903

[[record]]
monomer_sequence = "ADARMCGVLPW [PLP1_Y207_Y207C]"
observed_value = 0.527


q: Can you look up the measured SH2 binding enrichment of CSRHFYQLTKL [AR_Y858_R856H] for me?
a: 0.821

====

# key: entry, value: phosphorylation enrichment
# Tested on: c-Src;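 further: frequency after pTyr selection over input frequency; kinase dosed for 20-30% of maximal phosphorylation in three min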
# procedure.details: phosphorylation enrichment, bacterial display (enrichment ratio); higher = better substrate or ligand; peptides without Tyr show the background
Give the value as a plain number.

Sample records with phosphorylation enrichment:
[[record]]
monomer_sequence = "DPLLTYRFPPK [LMNA_Y481]"
observed_value = 0.635

[[record]]
monomer_sequence = "SVTCTYSRALN [TP53_Y126_P128R]"
observed_value = 0.494

[[record]]
monomer_sequence = "RSRQIYDAYIM [GRK3_Y109]"
observed_value = 11

[[record]]
monomer_sequence = "GGTPLYRDRQG [AGXT_Y194_M195R]"
observed_value = 0.358

[[record]]
monomer_sequence = "GRFCGYKSKHG [EPHA3_Y570]"
observed_value = 0.363

[[record]]
monomer_sequence = "KEKLCYVAPDF [ACTA1_Y220_L223P]"
observed_value = 0.581

[[record]]
monomer_sequence = "GSSKIYFLHAD [TLR5_Y108_P112A]"
observed_value = 0.893

[[record]]
monomer_sequence = "PSPMPCASCQM [FOXL2_Y215_Y215C]"
observed_value = 0.37

[[record]]
monomer_sequence = "NPQKSYFIHLY [WAS_Y83_R86H]"
observed_value = 0.407

[[record]]
monomer_sequence = "TFRPPYYHRDC [HGD_Y333_N337D]"
observed_value = 0.583


q: What reported phosphorylation enrichment corresponds to QAINEYEKWLE [MAP9_Y603] on c-Src?
a: 0.631

q: RNEAFYDTFST [EFCAB3_Y372_S370A] ?
a: 10

q: And then TLQSMFGCDVG [HLA-B_Y123_Y123F] , what is it?
a: 0.44

q: Another: NVTGHYISPFH [PPA2_Y59]
a: 0.362

====

# Test system: c-Src;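 further: 11-residue human phosphosite peptides and single-mutation variants displayed on the E. coli surface, counted by deep sequencing, each peptide's frequency after selection divided by its frequency in the unselected input library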;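 further: frequency after pTyr selection over input frequency; kinase dosed for 20-30% of maximal phosphorylation in three min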
# procedure.details: phosphorylation enrichment, bacterial display (enrichment ratio); higher = better substrate or ligand; peptides without Tyr show the background
Binary call on phosphorylation enrichment: met from 0.5 upward, not met beneath that.

[[record]]
monomer_sequence = "GKTFTYRSVFF [ZNF80_Y200]"
label_value = "not met"

[[record]]
monomer_sequence = "NFATLHLKIYH [PDE6B_Y219_Y219H]"
label_value = "met"

[[record]]
monomer_sequence = "AHPIIYEIIEA [PYKtide_E_2014]"
label_value = "met"

[[record]]
monomer_sequence = "PLDGESFTLQI [TP53_Y327_Y327S]"
label_value = "met"

[[record]]
monomer_sequence = "ATRKAYGQALA [TKT_Y321]"
label_value = "not met"


q: Kindly determine if phosphorylation enrichment recorded for IFQASYFRRGD [LTK_Y676_R673Q_YF] is above or exactly 0.5.
a: met

q: Try the sequence PGRRFYVVACD [RNASE3_Y134]
a: met

q: Next record, please: ALKKPYGVLFK [RPF2_Y59_YF]
a: met

q: Next: LEITWYPFDVE [RIPOR2_Y316]
a: met

q: And IFRASYFRKGG [ALK_Y1282_YF] ?
a: met
